Data export: Kd values recorded with Mab TrmD (Mycobacteroides abscessus).
Unit nM implied. Number only.

| compound | experimental-endpoint | scale-unit | experimental-result |
| --- | --- | --- | --- |
| N#Cc1c(N)n[nH]c1-c1ccc2ccn(Cc3ccc(CN4CCOCC4)cc3)c2c1 [Compound 29c] | Kd | nM | 190 |

Q: Quick one: Kd for N#Cc1c(N)n[nH]c1-c1ccc2ccn(Cc3ccc(CN4CCCCC4)cc3)c2c1 [Compound 29b] ?
Ans: 70

---

Target: UniProt:B1MDI3
Experiment: Isothermal titration calorimetry (ITC)
Type: binding
Conditions: Table 1; ligand efficiency
experimental-endpoint: LE

Reference set, count: 3
| molecule | LE |
| --- | --- |
| N#Cc1cccc(COC(=O)c2cn[nH]c2)c1 [Compound 6, 3-Cyanobenzyl 1H-Pyrazole-4-carboxylate] | 0.36 kcal mol^–1 per heavy atom |
| CCOC(=O)c1cn[nH]c1 [Compound 1, ethyl 1H-pyrazole-4-carboxylate] | 0.55 kcal mol^–1 per heavy atom |
| COc1cccc(COC(=O)c2cn[nH]c2)c1 [Compound 7] | 0.39 kcal mol^–1 per heavy atom |

Now look at this entry.
Q: UniProt:B1MDI3 / LE / O=C(OCc1ccccc1)c1cn[nH]c1 [Compound 3, Benzyl 1H-Pyrazole-4-carboxylate] : value?
Ans: 0.41 kcal mol^–1 per heavy atom

---

Measured GE (R^1) accompanies every entry in the list below.
Biological target: Mab TrmD (Mycobacteroides abscessus, UniProt B1MDI3)
Sequence (B1MDI3 entry or part of it): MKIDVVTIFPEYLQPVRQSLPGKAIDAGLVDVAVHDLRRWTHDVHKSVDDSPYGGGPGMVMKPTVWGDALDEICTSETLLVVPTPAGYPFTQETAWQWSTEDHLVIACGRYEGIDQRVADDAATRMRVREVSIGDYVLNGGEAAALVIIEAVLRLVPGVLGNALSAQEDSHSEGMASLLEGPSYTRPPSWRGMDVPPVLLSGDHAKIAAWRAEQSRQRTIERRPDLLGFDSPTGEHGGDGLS
Experiment: Isothermal titration calorimetry (ITC)
Assay type: binding
Conditions: Table 5; group efficiency of R^1

Reference set, count: 5
| molecule | GE (R^1) |
| --- | --- |
| CN1CCCCC1Cn1ccc2ccc(-c3[nH]nc(N)c3C#N)cc21 (stereo not drawn) [Compound 26n] | 0.16 kcal mol^–1 per heavy atom |
| N#Cc1c(N)n[nH]c1-c1ccc2ccn(Cc3cccnc3O)c2c1 [Compound 26j] | 0.03 kcal mol^–1 per heavy atom |
| N#Cc1c(N)n[nH]c1-c1ccc2ccn(Cc3ccncc3)c2c1 [Compound 26l] | 0.31 kcal mol^–1 per heavy atom |
| CN1CCCC(Cn2ccc3ccc(-c4[nH]nc(N)c4C#N)cc32)C1 (stereo not drawn) [Compound 26o] | 0.20 kcal mol^–1 per heavy atom |
| N#Cc1c(N)n[nH]c1-c1ccc2ccn(Cc3cccnc3)c2c1 [Compound 26g] | 0.28 kcal mol^–1 per heavy atom |

Now look at this entry.
Q: Quick one: GE (R^1) for N#Cc1c(N)n[nH]c1-c1ccc2ccn(Cc3ccc(O)nc3)c2c1 [Compound 26k] ?
Ans: 0.10 kcal mol^–1 per heavy atom

---

Target: UniProtKB B1MDI3
Experiment: Isothermal titration calorimetry (ITC)
Assay type: binding
Settings: Table 4; ligand efficiency
experimental-endpoint: LE

Reference set, count: 4
| molecule | system-under-test | LE |
| --- | --- | --- |
| COc1cccc(Cn2ccc3ccc(-c4cc(N)n[nH]4)cc32)c1 [Compound 24b] | UniProtKB B1MDI3 | 0.28 kcal mol^–1 per heavy atom |
| N#Cc1ccccc1Cn1ccc2ccc(-c3cc(N)n[nH]3)cc21 [Compound 24d] | UniProtKB B1MDI3 | 0.28 kcal mol^–1 per heavy atom |
| COc1ccc(Cn2ccc3ccc(-c4cc(N)n[nH]4)cc32)cc1 [Compound 24a] | UniProtKB B1MDI3 | 0.24 kcal mol^–1 per heavy atom |
| N#Cc1c(N)n[nH]c1-c1ccc2cc[nH]c2c1 | UniProtKB B1MDI3 | 0.43 kcal mol^–1 per heavy atom |

Now look at this entry.
Q: UniProtKB B1MDI3 / LE / Nc1cc(-c2ccc3ccn(Cc4ccccc4)c3c2)[nH]n1 [Compound 24c] : value?
Ans: 0.29 kcal mol^–1 per heavy atom

---

Biological target: Mab TrmD (Mycobacteroides abscessus)
Assay: Isothermal titration calorimetry (ITC)
Type: binding
Details: Table 6; ligand efficiency
experimental-endpoint: LE

Reference set, count: 4
| molecule | LE |
| --- | --- |
| Nc1cc(-c2ccc3ccn(Cc4ccc(CN5CCCCC5)cc4)c3c2)[nH]n1 [Compound 31b] | 0.29 kcal mol^–1 per heavy atom |
| Cc1c(N)n[nH]c1-c1ccc2ccn(Cc3ccc(CN4CCCC4)cc3)c2c1 [Compound 30a] | 0.27 kcal mol^–1 per heavy atom |
| N#Cc1c(N)n[nH]c1-c1ccc2ccn(Cc3ccc(CN4CCCCC4)cc3)c2c1 [Compound 29b] | 0.31 kcal mol^–1 per heavy atom |
| N#Cc1c(N)n[nH]c1-c1ccc2ccn(Cc3ccc(CN4CCOCC4)cc3)c2c1 [Compound 29c] | 0.30 kcal mol^–1 per heavy atom |

Now look at this entry.
Q: Quick one: LE for CC(C)N1CCN(Cc2ccc(Cn3ccc4ccc(-c5[nH]nc(N)c5C#N)cc43)cc2)CC1 [Compound 29e] ?
Ans: 0.28 kcal mol^–1 per heavy atom

---

Target: Mab TrmD (Mycobacteroides abscessus, UniProt B1MDI3)
Assay: Isothermal titration calorimetry (ITC)
Type: binding
Conditions: Table 5; ligand efficiency
experimental-endpoint: LE

| compound | experimental-result |
| --- | --- |
| CN1CCCCC1Cn1ccc2ccc(-c3[nH]nc(N)c3C#N)cc21 (stereo not shown) [Compound 26n] | 0.34 kcal mol^–1 per heavy atom |

Now look at this entry.
Q: Quick one: LE for N#Cc1c(N)n[nH]c1-c1ccc2ccn(Cc3ccncc3)c2c1 [Compound 26l] ?
Ans: 0.39 kcal mol^–1 per heavy atom

---

Molecular target: Mab TrmD (Mycobacteroides abscessus)
Experiment: Isothermal titration calorimetry (ITC)
Assay type: binding
Conditions: ligand efficiency
Measured LE accompanies every entry in the list below.

Reference set, count: 4
| compound | experimental-result |
| --- | --- |
| N#Cc1c(N)n[nH]c1-c1ccc2ccn(Cc3ccc(CN4CCOCC4)cc3)c2c1 [Compound 29c] | 0.30 kcal mol^–1 per heavy atom |
| COC(=O)COc1cccc(COC(=O)c2cn[nH]c2)c1 | 0.32 kcal mol^–1 per heavy atom |
| N#Cc1ccccc1Cn1ccc2ccc(-c3cc(N)n[nH]3)cc21 [Compound 24d] | 0.28 kcal mol^–1 per heavy atom |
| CCOC(=O)c1cn[nH]c1 [Compound 1, ethyl 1H-pyrazole-4-carboxylate] | 0.55 kcal mol^–1 per heavy atom |

Now look at this entry.
Q: Quick one: LE for COc1cccc(COC(=O)c2cn[nH]c2)c1 ?
Ans: 0.39 kcal mol^–1 per heavy atom

---

Target: Mab TrmD (Mycobacteroides abscessus)
Assay: Isothermal titration calorimetry (ITC)
Format: binding
Details: group efficiency of the added group
Measured GE accompanies every entry in the list below.

Reference set, count: 3
| compound | experimental-endpoint | experimental-result |
| --- | --- | --- |
| Nc1cc(-c2ccc3ccn(Cc4ccccc4)c3c2)[nH]n1 [Compound 24c] | GE | 0.15 kcal mol^–1 per heavy atom |
| N#Cc1c(N)n[nH]c1-c1ccc2cc[nH]c2c1 [Compound 25] | GE | 0.91 kcal mol^–1 per heavy atom |
| N#Cc1c(N)n[nH]c1-c1ccc2ccn(Cc3ccccn3)c2c1 [Compound 26f] | GE | 0.95 kcal mol^–1 per heavy atom |

Q: Quick one: GE for COc1cccc(Cn2ccc3ccc(-c4cc(N)n[nH]4)cc32)c1 [Compound 24b] ?
Ans: 0.14 kcal mol^–1 per heavy atom

---

Target: Mab TrmD (Mycobacteroides abscessus, UniProt B1MDI3)
Experiment: Isothermal titration calorimetry (ITC)
Type: binding
Conditions: ligand efficiency
Measured LE accompanies every entry in the list below.

Reference set, count: 10
| compound | system-under-test | LE |
| --- | --- | --- |
| CN1CCCCC1Cn1ccc2ccc(-c3[nH]nc(N)c3C#N)cc21 (stereo not drawn) [Compound 26n] | Mab TrmD (Mycobacteroides abscessus, UniProt B1MDI3) | 0.34 kcal mol^–1 per heavy atom |
| N#Cc1c(N)n[nH]c1-c1ccc2ccn(Cc3cccnc3)c2c1 [Compound 26g] | Mab TrmD (Mycobacteroides abscessus, UniProt B1MDI3) | 0.38 kcal mol^–1 per heavy atom |
| N#Cc1c(N)n[nH]c1-c1ccc2ccn(Cc3ccc(O)nc3)c2c1 [Compound 26k] | Mab TrmD (Mycobacteroides abscessus, UniProt B1MDI3) | 0.32 kcal mol^–1 per heavy atom |
| CC(C)N1CCN(Cc2ccc(Cn3ccc4ccc(-c5[nH]nc(N)c5C#N)cc43)cc2)CC1 [Compound 29e] | Mab TrmD (Mycobacteroides abscessus, UniProt B1MDI3) | 0.28 kcal mol^–1 per heavy atom |
| COc1cc(COC(=O)c2cn[nH]c2)cc(Cc2cccnc2)c1 [Compound 15] | Mab TrmD (Mycobacteroides abscessus, UniProt B1MDI3) | 0.28 kcal mol^–1 per heavy atom |
| COc1ccc(Cn2ccc3ccc(-c4cc(N)n[nH]4)cc32)cc1 [Compound 24a] | Mab TrmD (Mycobacteroides abscessus, UniProt B1MDI3) | 0.24 kcal mol^–1 per heavy atom |
| COc1cccc(Cn2ccc3ccc(-c4cc(N)n[nH]4)cc32)c1 [Compound 24b] | Mab TrmD (Mycobacteroides abscessus, UniProt B1MDI3) | 0.28 kcal mol^–1 per heavy atom |
| N#Cc1c(N)n[nH]c1-c1ccc2c(Cl)cn(Cc3cccnc3)c2c1 [Compound 27g] | Mab TrmD (Mycobacteroides abscessus, UniProt B1MDI3) | 0.28 kcal mol^–1 per heavy atom |
| O=C(OCc1ccccc1)c1cn[nH]c1 [Compound 3, Benzyl 1H-Pyrazole-4-carboxylate] | Mab TrmD (Mycobacteroides abscessus, UniProt B1MDI3) | 0.41 kcal mol^–1 per heavy atom |
| Nc1cc(-c2ccc3ccn(Cc4ccccc4)c3c2)[nH]n1 [Compound 24c] | Mab TrmD (Mycobacteroides abscessus, UniProt B1MDI3) | 0.29 kcal mol^–1 per heavy atom |

Q: Quick one: LE for N#Cc1c(N)n[nH]c1-c1ccc2cc[nH]c2c1 [Compound 25] ?
Ans: 0.43 kcal mol^–1 per heavy atom

Q: Quick one: LE for COc1cc(COC(=O)c2cn[nH]c2)cc(-c2cccnc2)c1 [Compound 14] ?
Ans: 0.31 kcal mol^–1 per heavy atom

Q: Quick one: LE for CCOC(=O)c1cnn(CC#Cc2cc(COC(=O)c3cn[nH]c3)cc(OC)c2)c1 [Compound 12] ?
Ans: 0.24 kcal mol^–1 per heavy atom

Q: Quick one: LE for N#Cc1c(N)n[nH]c1-c1ccc2ccn(Cc3cccnc3O)c2c1 [Compound 26j] ?
Ans: 0.30 kcal mol^–1 per heavy atom

Q: Quick one: LE for COc1cc(COC(=O)c2cn[nH]c2)cc(N2CCCC2)c1 [Compound 13] ?
Ans: 0.31 kcal mol^–1 per heavy atom

Q: Quick one: LE for N#Cc1c(N)n[nH]c1-c1ccc2ccn(Cc3ccncc3)c2c1 [Compound 26l] ?
Ans: 0.39 kcal mol^–1 per heavy atom

Q: Quick one: LE for CN1CCCC(Cn2ccc3ccc(-c4[nH]nc(N)c4C#N)cc32)C1 (stereo not drawn) [Compound 26o] ?
Ans: 0.35 kcal mol^–1 per heavy atom

Q: Quick one: LE for CCOc1cccc(COC(=O)c2cn[nH]c2)c1 [Compound 10, 3-Ethoxybenzyl 1H-Pyrazole-4-carboxylate] ?
Ans: 0.38 kcal mol^–1 per heavy atom
